biological target: HLA-A*01:01; test: IEDB peptide-MHC binding, purified MHC/direct/fluorescence; filed as Kd, often an IC50 or EC50 that approximates it; bounds were set here for any values at or beyond the usual limits of such assays; conditions: source organism: Orthohantavirus hantanense
experimental readout: Kd

# sequence input, recorded value
rows = [
    ("KSSLEVYIY", "158 nM"),
]

----------
target: HLA-A*24:03; assay: IEDB peptide-MHC binding, purified MHC/competitive/fluorescence; filed as Kd, often an IC50 or EC50 that approximates it; bounds were set here for any values at or beyond the usual limits of such assays; conditions: source organism: Escherichia coli F11
pKd: −log10 of the molar value.
experimental readout: pKd

# sequence input, recorded value
rows = [
    ("GSGDDTWLI", "≤ 4.70"),
]
